This collection of values is drawn from ChEMBL document CHEMBL4052827.

# targetDesc: Cytochrome P450 2D6 (Homo sapiens, UniProt P10635)
# Sequence (P10635 whole entry): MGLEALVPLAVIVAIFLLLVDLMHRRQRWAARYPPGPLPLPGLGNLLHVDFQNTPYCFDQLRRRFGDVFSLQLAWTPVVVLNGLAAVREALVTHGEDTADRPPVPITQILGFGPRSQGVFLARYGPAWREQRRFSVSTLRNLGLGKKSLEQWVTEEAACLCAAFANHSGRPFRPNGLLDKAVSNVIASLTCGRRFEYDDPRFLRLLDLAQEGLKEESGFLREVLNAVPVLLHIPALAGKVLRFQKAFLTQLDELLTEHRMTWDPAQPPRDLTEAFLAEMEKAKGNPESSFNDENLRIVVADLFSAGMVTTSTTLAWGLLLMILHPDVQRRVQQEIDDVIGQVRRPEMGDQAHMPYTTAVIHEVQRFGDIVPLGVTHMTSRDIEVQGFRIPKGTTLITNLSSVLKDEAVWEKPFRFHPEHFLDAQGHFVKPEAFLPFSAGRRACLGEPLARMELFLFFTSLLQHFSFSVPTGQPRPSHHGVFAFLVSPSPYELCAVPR
# protocolSummary: Inhibition of recombinant human CYP2D6 expressed in microsomes of insect cells using AMMC as substrate preincubated for 30 mins followed by NADP addition after 45 mins by fluorescence analysis
readoutLabel: IC50 (nM)

For orientation, consider the following solved cases.
- smilesText: "c1ccc(CN(CCCCN(C[C@H]2Cc3ccccc3CN2)[C@H]2CCCc3cccnc32)Cc2ccccn2)nc1"
  unitOfMeasure: "nM"
  IC50: 1160
- smilesText: "FC1(F)CCC(NC/C=C/CN(C[C@H]2Cc3ccccc3CN2)[C@H]2CCCc3cccnc32)CC1"
  unitOfMeasure: "nM"
  IC50: 1450
- smilesText: "c1ccc2c(c1)CN[C@@H](CN(CCCCNC1CCOCC1)[C@H]1CCCc3cccnc31)C2"
  unitOfMeasure: "nM"
  IC50: 657
- smilesText: "c1ccc2c(c1)CN[C@@H](CN(CCCCNC1CCNCC1)[C@H]1CCCc3cccnc31)C2"
  unitOfMeasure: "nM"
  IC50: 2610
- smilesText: "CC(C)(CCN(C[C@H]1Cc2ccccc2CN1)[C@H]1CCCc2cccnc21)CNC1CCC(F)(F)CC1"
  unitOfMeasure: "nM"
  IC50: 2040
- smilesText: "NC/C=C\\CN(C[C@H]1Cc2ccccc2CN1)[C@H]1CCCc2cccnc21"
  unitOfMeasure: "nM"
  IC50: 333
- smilesText: "c1cncc(CNCCCCN(C[C@H]2Cc3ccccc3CN2)[C@H]2CCCc3cccnc32)c1"
  unitOfMeasure: "nM"
  IC50: 217
- smilesText: "c1ccc2c(c1)CN[C@@H](CN(CCCCNCC1CCNCC1)[C@H]1CCCc3cccnc31)C2"
  unitOfMeasure: "nM"
  IC50: 2530
- smilesText: "CC(C)(N)CCCN(C[C@H]1Cc2ccccc2CN1)[C@H]1CCCc2cccnc21"
  unitOfMeasure: "nM"
  IC50: 345
- smilesText: "FC1(F)CCC(NCc2ccc(CN(C[C@H]3Cc4ccccc4CN3)[C@H]3CCCc4cccnc43)cc2)CC1"
  unitOfMeasure: "nM"
  IC50: 577

[1] CC(C)(CCN(C[C@H]1Cc2ccccc2CN1)[C@H]1CCCc2cccnc21)CNCC1CCOCC1
[2] O=S1(=O)CCC(NCCCCN(C[C@H]2Cc3ccccc3CN2)[C@H]2CCCc3cccnc32)CC1
Lookup: Would you let me know which has the greater IC50 value, 1 or 2 ? Pick one and reply with its label.
Found: 1
(1: 1750 nM, 2: 853 nM)

[I] C(=C\CN(C[C@H]1Cc2ccccc2CN1)[C@H]1CCCc2cccnc21)/CNC1CCOCC1
[II] CC(C)(CCN)CN(C[C@H]1Cc2ccccc2CN1)[C@H]1CCCc2cccnc21
Lookup: Lower value of IC50 belongs to which: I or II ? Pick one and reply with its label.
Found: II
(II: 197 nM, I: 2610 nM)

====

# protocolSummary: Permeability of the compound at pH 7.4 at 100 uM after 4 hrs by PAMPA
readoutLabel: Papp at 4 h, 100 µM (×10⁻⁶ cm/s)

- smilesText: "NC/C=C/CN(C[C@H]1Cc2ccccc2CN1)[C@H]1CCCc2cccnc21"
  testValue: 82.9
- smilesText: "FC1(F)CCC(NC/C=C/CN(C[C@H]2Cc3ccccc3CN2)[C@H]2CCCc3cccnc32)CC1"
  testValue: 4.9
- smilesText: "FC1(F)CCC(NCc2ccc(CN(C[C@H]3Cc4ccccc4CN3)[C@H]3CCCc4cccnc43)cc2)CC1"
  testValue: 0.5

[a] c1ccc2c(c1)CN[C@@H](CN(CCCCNCC1CCCCC1)[C@H]1CCCc3cccnc31)C2
[b] C(=C\CN(C[C@H]1Cc2ccccc2CN1)[C@H]1CCCc2cccnc21)/CNCc1ccccn1
Lookup: Would you let me know which has the greater Papp at 4 h, 100 µM value, a or b ? Pick one and reply with its label.
Found: b
